Reported collision cross section by item:
test: collision cross section (TIMS, N2 drift gas) of the primary ion; higher = larger gas-phase ion size; conditions: ionization mode: ESI-; ion species: [M-H]-
reported property: collision cross section (Å²)

>>> obs_value("O=C(O)C(F)(F)C(F)(F)C(F)(F)C(F)(F)C(F)(F)C(F)(F)C(F)(F)C(F)(F)F")
164.37
>>> obs_value("O=[PH]1Oc2ccccc2-c2ccccc21 (centres undefined) [3,4,5,6-Dibenzo-1,2-oxaphosphane-2-oxide]")
144.27
>>> obs_value("Oc1cc(Cl)c(Cl)c(Cl)c1")
126.86
>>> obs_value("O=C(O)c1ccc(Cl)cc1Cl")
124.87
